Target: Receptor tyrosine-protein kinase erbB-4 (Homo sapiens, UniProt Q15303)
Sequence (Q15303 whole entry, the tested form may be a part): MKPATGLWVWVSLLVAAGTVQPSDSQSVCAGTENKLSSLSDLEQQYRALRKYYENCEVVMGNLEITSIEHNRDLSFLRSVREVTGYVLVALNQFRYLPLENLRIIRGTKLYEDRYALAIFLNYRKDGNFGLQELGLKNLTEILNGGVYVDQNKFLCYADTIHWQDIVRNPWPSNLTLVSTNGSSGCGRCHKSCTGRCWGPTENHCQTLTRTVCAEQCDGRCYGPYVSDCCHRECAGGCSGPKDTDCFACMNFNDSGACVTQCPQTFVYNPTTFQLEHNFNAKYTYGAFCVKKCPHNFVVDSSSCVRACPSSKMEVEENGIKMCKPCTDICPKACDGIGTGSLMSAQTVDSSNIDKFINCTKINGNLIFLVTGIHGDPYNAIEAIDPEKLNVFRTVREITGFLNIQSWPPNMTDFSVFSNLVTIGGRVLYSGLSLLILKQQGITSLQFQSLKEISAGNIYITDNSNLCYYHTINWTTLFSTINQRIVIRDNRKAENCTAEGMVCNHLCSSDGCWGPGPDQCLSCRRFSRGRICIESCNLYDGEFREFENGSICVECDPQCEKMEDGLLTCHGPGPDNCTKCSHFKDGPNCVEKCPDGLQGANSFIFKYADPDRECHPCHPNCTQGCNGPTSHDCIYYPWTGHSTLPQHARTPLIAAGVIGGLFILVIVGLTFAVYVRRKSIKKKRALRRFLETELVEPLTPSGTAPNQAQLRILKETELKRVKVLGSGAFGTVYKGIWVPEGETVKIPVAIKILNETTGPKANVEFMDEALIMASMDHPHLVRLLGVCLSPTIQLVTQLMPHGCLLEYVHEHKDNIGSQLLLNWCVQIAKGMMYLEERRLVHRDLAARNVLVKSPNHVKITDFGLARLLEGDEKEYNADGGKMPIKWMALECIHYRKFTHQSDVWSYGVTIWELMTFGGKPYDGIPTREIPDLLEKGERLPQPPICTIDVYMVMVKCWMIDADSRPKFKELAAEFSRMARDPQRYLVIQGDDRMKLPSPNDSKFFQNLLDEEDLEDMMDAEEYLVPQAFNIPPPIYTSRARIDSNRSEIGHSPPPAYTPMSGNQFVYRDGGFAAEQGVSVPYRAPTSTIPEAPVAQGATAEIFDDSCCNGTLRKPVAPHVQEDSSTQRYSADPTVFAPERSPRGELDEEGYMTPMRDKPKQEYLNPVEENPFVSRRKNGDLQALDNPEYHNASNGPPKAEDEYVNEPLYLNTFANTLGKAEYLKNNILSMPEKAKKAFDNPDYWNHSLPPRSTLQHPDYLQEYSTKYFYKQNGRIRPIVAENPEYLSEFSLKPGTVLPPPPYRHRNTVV
Assay: Inhibition of wild type GST-tagged HER4 catalytic domain (unknown origin) expressed in insect cells using poly(Glu-Tyr) as substrate incubated for 6 mins by ELISA
pIC50: −log10 of the molar value.

# compound, pIC50
records = [
    ("COc1cc(C2NCCc3c2[nH]c2ccccc32)ccc1OCc1cc(C(F)(F)F)cc(C(F)(F)F)c1 (stereo unspecified)", 4.06),
]

====

Assay: Metabolic stability in human liver microsomes assessed as compound remaining at […] measured after 30 mins in presence of NADPH by LC-MS/MS analysis
Assay type: ADME, Microsome
Conditions: read-out: Stability
The entries below are paired with their reported remaining at 0.5 h.

# compound, unit-abbrev, remaining at 0.5 h
measured = [
    ("COc1cc(C2NCCc3c2[nH]c2ccccc32)ccc1OCc1ccc(OC(F)(F)F)c(Cl)c1 (centres undefined)", "%", 70),
    ("O=C(Oc1ccc(C2NCCc3c2[nH]c2ccccc32)cc1)c1ccccc1 (centres undefined)", "%", 16.4),
    ("COc1cc(C2NCCc3c2[nH]c2ccccc32)ccc1OCc1ccc(C#N)cc1F (centres undefined)", "%", 40.6),
    ("COC(=O)c1ccc(COc2ccc(C3NCCc4c3[nH]c3ccccc43)cc2OC)cc1 (centres undefined)", "%", 10.3),
    ("COc1cc(C2NCCc3c2[nH]c2ccccc32)ccc1OC(=O)c1ccccc1 (centres undefined)", "%", 20.6),
    ("COc1cc(C2NCCc3c2[nH]c2ccccc32)ccc1OCc1ccc(F)cc1Br (centres undefined)", "%", 61.1),
    ("COc1cc(C2NCCc3c2[nH]c2ccccc32)ccc1OCc1cc(C(F)(F)F)cc(C(F)(F)F)c1 (centres undefined)", "%", 85.9),
    ("COc1cc(C2NCCc3c2[nH]c2ccccc32)ccc1OCc1ccc(C(C)(C)C)cc1 (centres undefined)", "%", 50.6),
    ("COc1cc(C2NCCc3c2[nH]c2ccccc32)ccc1OCc1ccc(F)c(Br)c1 (centres undefined)", "%", 65.4),
]
